system: α7 integrin (LacZ reporter in α7βgal+/− myoblasts); assay: Myoblast α7+/LacZ integrin FDG assay (Burkin assay in myoblasts, 96-well); type: cell-based, mouse; details: 5 uM; α7+/LacZ myoblasts, 96-well
Answer each item with its documented Burkin Assay in Myoblasts, signal relative to DMSO.
Simply state the number, no unit and no words.

Query: Recorded Burkin Assay in Myoblasts, signal relative to DMSO of CCOc1ccc(NC(=O)CN2C(=O)S/C(=C/c3cccn3C)C2=O)cc1 [MLS000702680-01] , please.
Response: 0.8623

Query: Recorded Burkin Assay in Myoblasts, signal relative to DMSO of CN(C)C1(CN=Cc2cc(Cl)cc([N+](=O)[O-])c2O)CCCCC1 [MLS001179695-01] , please.
Response: 0.8752

Query: Recorded Burkin Assay in Myoblasts, signal relative to DMSO of CC1CC(C)(C)NC(=S)N1CC(=O)N(C)Cc1ccccc1 (stereo not drawn) [MLS000586245-01] , please.
Response: 1.116

Query: Recorded Burkin Assay in Myoblasts, signal relative to DMSO of Fc1ccc(-c2ccnc3nc(N4CCN(c5ccccc5)CC4)nn23)cc1 [MLS000546316-01] , please.
Response: 1.164

Query: Recorded Burkin Assay in Myoblasts, signal relative to DMSO of Cc1nc2c(cnn2-c2ccccc2)c(=O)n1/N=C/c1ccccc1 [MLS000860538-01] , please.
Response: 1.078

Query: Recorded Burkin Assay in Myoblasts, signal relative to DMSO of COC(=O)c1ccccc1NC(=O)c1cc[n+]([O-])cc1 [MLS001167169-01] , please.
Response: 0.9547

Query: Recorded Burkin Assay in Myoblasts, signal relative to DMSO of COc1ccc(C)cc1NC(=O)c1ccc2c(O)c(S(=O)(=O)c3ccccc3)c(=O)[nH]c2c1 [MLS001122718-01] , please.
Response: 1.033

Query: Recorded Burkin Assay in Myoblasts, signal relative to DMSO of CSc1ccc(S(=O)(=O)NCc2ccccc2)cc1 [MLS000531177-01] , please.
Response: 1.067

Query: Recorded Burkin Assay in Myoblasts, signal relative to DMSO of Cc1ccccc1NC(=O)c1ccc2c(O)c(S(=O)(=O)c3ccccc3)c(=O)[nH]c2c1 [MLS001122698-01] , please.
Response: 1.008

Query: Recorded Burkin Assay in Myoblasts, signal relative to DMSO of Cc1cc([N+](=O)[O-])ccc1NC(=O)C(C)N1CCN(c2ccccn2)CC1 (stereo not drawn) [MLS000764729-01] , please.
Response: 0.9816

Query: Recorded Burkin Assay in Myoblasts, signal relative to DMSO of Cc1cccn2c(=O)c3cc(C(=O)NC4CCCCC4)n(C)c3nc12 [MLS001117351-01] , please.
Response: 0.7718

Query: Recorded Burkin Assay in Myoblasts, signal relative to DMSO of CC(OC(=O)c1cc(-c2cccnc2)nc2ccccc12)C(=O)Nc1ccc2ccccc2c1 (stereo not drawn) [MLS000389484-01] , please.
Response: 0.8524

Query: Recorded Burkin Assay in Myoblasts, signal relative to DMSO of COc1ccc(Cl)cc1NC(=O)c1cc(-c2cc(C)ccc2O)n[nH]1 [MLS000779126-01] , please.
Response: 0.9229

Query: Recorded Burkin Assay in Myoblasts, signal relative to DMSO of Cl.O=C(CN1CCOCC1)NCc1cc([N+](=O)[O-])ccc1O [MLS001211976-01] , please.
Response: 0.9018

Query: Recorded Burkin Assay in Myoblasts, signal relative to DMSO of CCCCCCC1CC(=O)NC(=O)N1 (stereo not drawn) [MLS000768008-01] , please.
Response: 0.8976

Query: Recorded Burkin Assay in Myoblasts, signal relative to DMSO of Cc1ccc(S(=O)(=O)N2CN(CC3CCCO3)c3nc4ccccc4nc32)c(C)c1 (stereo not drawn) [MLS001139288-01] , please.
Response: 0.8634

Query: Recorded Burkin Assay in Myoblasts, signal relative to DMSO of CCCCN(CCCC)CCNC(=O)c1cn(C)c2ccc(S(=O)(=O)N(C)C3CCCCC3)cc2c1=O [MLS000913117-01] , please.
Response: 0.9138

Query: Recorded Burkin Assay in Myoblasts, signal relative to DMSO of CN(C)CCNc1ncnc2sc(-c3ccccc3)cc12 [MLS001179717-01] , please.
Response: 0.8357

Query: Recorded Burkin Assay in Myoblasts, signal relative to DMSO of c1ccc(-c2cc(-c3nc4ccccc4[nH]3)c3ccccc3n2)cc1 [MLS000554416-01] , please.
Response: 0.9915

Query: Recorded Burkin Assay in Myoblasts, signal relative to DMSO of COC(=O)Cn1c(=O)c2c(nc3n2CC(C)CN3Cc2ccccc2)n(C)c1=O (stereo not drawn) [MLS001166758-01] , please.
Response: 0.9736

Query: Recorded Burkin Assay in Myoblasts, signal relative to DMSO of Cc1cc(C(=O)Nc2cccc3ccccc23)c(C)o1 [MLS001219345-01] , please.
Response: 1.046

Query: Recorded Burkin Assay in Myoblasts, signal relative to DMSO of CCCS(=O)(=O)c1nc(S(=O)(=O)c2ccc(C)cc2)c(N2CCCC2)s1 [MLS000113985-01] , please.
Response: 0.7898

Query: Recorded Burkin Assay in Myoblasts, signal relative to DMSO of Cc1ccc2c(c1)/C(=C/c1ccco1)C(=O)N2 [MLS000682750-01] , please.
Response: 1.229

Query: Recorded Burkin Assay in Myoblasts, signal relative to DMSO of Cn1cc(CN2CCC(C(=O)Nc3cccc(-c4cscn4)c3)CC2)cn1 [MLS001105912-01] , please.
Response: 1.029

Query: Recorded Burkin Assay in Myoblasts, signal relative to DMSO of CCN(CC)C(=O)c1sc2nc(-c3ccc(OC)cc3)cn2c1C [MLS000089464-01] , please.
Response: 0.934

Query: Recorded Burkin Assay in Myoblasts, signal relative to DMSO of CCOc1cc(C)c(S(=O)(=O)N2CCCCC2)cc1C [MLS000693795-01] , please.
Response: 1.02

Query: Recorded Burkin Assay in Myoblasts, signal relative to DMSO of CC1Cc2ccccc2N1C(=O)CSc1nnc(N)s1 (stereo not drawn) [MLS001160611-01] , please.
Response: 1.004

Query: Recorded Burkin Assay in Myoblasts, signal relative to DMSO of Cc1ccc(C(=O)N2CCN(S(=O)(=O)N3CCOCC3)CC2)cc1 [MLS000663185-01] , please.
Response: 1.399

Query: Recorded Burkin Assay in Myoblasts, signal relative to DMSO of CCCNC(=S)N1CCC(NC(=O)c2ccc(OC)cc2)CC1 [MLS001211651-01] , please.
Response: 1.011

Query: Recorded Burkin Assay in Myoblasts, signal relative to DMSO of O=C(c1cccs1)N(Cc1ccco1)c1nc(-c2ccc(F)cc2)cs1 [MLS000122749-01] , please.
Response: 1.026
